We begin with a simple list: items and their reported MBC.
# Tested on: Micrococcus luteus
# protocol.details: Bactericidal activity against Micrococcus luteus MTCC 2470 after 24 hrs
# Format: functional
# condition.summary: MTCC 2470, 24 h

compound | study.system | MBC
CCCCCCCCC(CCCCCCCCC(=O)OC)SCC(=O)N[C@H](C(=O)OC)c1c[nH]cn1 (some centres undefined) | Micrococcus luteus | 7.8 µg/mL
CCCCCCCCC(CCCCCCCCC(=O)OC)SCC(=O)NCC(=O)OC (centres undefined) | Micrococcus luteus | 31.2 µg/mL
O=C(O)c1cn(C2CC2)c2cc(N3CCNCC3)c(F)cc2c1=O | Micrococcus luteus | 0.9 µg/mL

// query MBC value for entry CCCCCCCCC(CCCCCCCCC(=O)OC)SCC(=O)N[C@@H](C)C(=O)OC (some centres undefined)
7.8 µg/mL

----------
We begin with a simple list: items and their reported MIC.
# System: Micrococcus luteus
# protocol.details: Antibacterial activity against Micrococcus luteus MTCC 2470 after 24 hrs by well diffusion assay
# Assay type: functional
# condition.summary: MTCC 2470, 24 h

molecule | measurement
CCCCCCCCC(CCCCCCCCC(=O)OC)SCC(=O)N[C@@H](Cc1ccccc1)C(=O)OC (some centres undefined) | > 125 µg/mL
Clc1ccc(COC(Cn2ccnc2)c2ccc(Cl)cc2Cl)c(Cl)c1 (centres undefined) | > 125 µg/mL
CCCCCCCCC(CCCCCCCCC(=O)OC)SCC(=O)N[C@H](C(=O)OC)c1c[nH]c2ccccc12 (some centres undefined) | > 125 µg/mL

Continue with the molecule presented below.
Record lookup: for Micrococcus luteus, what MIC belongs to CCCCCCCCC(CCCCCCCCC(=O)OC)SCC(=O)N[C@@H](CC(C)C)C(=O)OC (some centres undefined) ?
> 125 µg/mL
